# Test system: Middle East respiratory syndrome-related coronavirus
# TEST DESCRIPTION: Antiviral activity against MERS-CoV infected in human Calu-3 cells assessed as inhibition of viral growth
# Type: functional, organism-based
Where a name gives a salt, the structure may show the parent alone.
READOUT KIND: EC50 (nM)

> print(dat)
                                   compound  unit.text  value
1  N=C(N)Nc1ccc(C(=O)Oc2ccc3cc(C(=N)N)ccc3c2)cc1 [NAFAMOSTAT MESYLATE]         nM    5.9

###

# Tested on: SARS-CoV-2
# TEST DESCRIPTION: Antiviral activity against SARS-CoV-2 infected in […] Vero cells assessed as reduction in viral replication incubated for 24 hrs by Immunofluorescence assay
# Format: functional, organism-based
# APPLIED CONDITIONS: Severe acute respiratory syndrome coronavirus 2, Vero
Structures can show the parent of a compound that is named as a salt.
READOUT KIND: EC50 (nM)

> print(dat)
                                   molecule  unit.text  value
1  N=C(N)Nc1ccc(C(=O)Oc2ccc3cc(C(=N)N)ccc3c2)cc1 [NAFAMOSTAT MESYLATE]         nM      5

###

# Test system: Influenza A virus
# TEST DESCRIPTION: Antiviral activity against influenza A virus H1N1 infected in MDCK cells assessed as reduction in virus induced cytopathic effect by CPE assay
# Assay type: functional, organism-based
pEC50: −log10 of the molar value.
READOUT KIND: pEC50

> print(dat)
     structure.as.smiles  readout.kind  value
1  O=C(Nc1cccnc1)c1cccs1         pEC50   5.64

###

# System: Middle East respiratory syndrome-related coronavirus
# TEST DESCRIPTION: Antiviral activity against MERS-CoV infected in human MRC5 cells assessed as reduction in viral replication measured after 48 hrs by qRT-PCR assay
# Type: functional, organism-based
# APPLIED CONDITIONS: MRC5, 48 h
READOUT KIND: EC50 (nM)

COMPOUND	READOUT KIND	VALUE
COC(=O)[C@H]1[C@@H](O)[C@@]2(O)c3c(OC)cc(O[C@@H]4O[C@@H]([C@H](O)CO)CO[C@H]4OC)cc3O[C@@]2(c2ccc(OC)cc2)[C@@H]1c1ccccc1 [SILVESTROL]	EC50	1.3

###

# Test system: Influenza B virus
# TEST DESCRIPTION: Antiviral activity against Influenza B virus assessed as inhibition of virus-induced cytopathic effect
# Format: functional, organism-based
pEC50: −log10 of the molar value.
READOUT KIND: pEC50

> print(dat)
     structure.as.smiles  readout.kind  value
1  O=C(Nc1cccnc1)c1cccs1         pEC50   5.64

###

# TEST DESCRIPTION: Cytotoxicity against African green monkey Vero cells assessed as reduction in cell viability measured after 72 hrs by MTT assay
# Assay type: toxicity, cell-based
# APPLIED CONDITIONS: chlorocebus sabaeus
READOUT KIND: CC50 at 72 h (µM)

> print(dat)
                        structure.as.smiles  value
1  CCCCCN(CC)c1ccc(Oc2ccc(-c3c(C)c(=O)c4c(F)cccc4n3C)cc2F)cc1   10.7
